Where do the numbers come from? From patent US20220064276A1.

- measured-target: T1, human LTBP1-proTGFβ1 complex (human, UniProt Q14766 347-1721; P01137 30-390)
- T1 construct: Large latent complex: one presenting molecule disulfide-linked to a proTGFβ1 dimer; also called Hu LTBP1-proTGFβ1; huLTBP1 proTGFβ1
- T1 sequence (Q14766 347-1721 limits assumed, chain 1 of 2): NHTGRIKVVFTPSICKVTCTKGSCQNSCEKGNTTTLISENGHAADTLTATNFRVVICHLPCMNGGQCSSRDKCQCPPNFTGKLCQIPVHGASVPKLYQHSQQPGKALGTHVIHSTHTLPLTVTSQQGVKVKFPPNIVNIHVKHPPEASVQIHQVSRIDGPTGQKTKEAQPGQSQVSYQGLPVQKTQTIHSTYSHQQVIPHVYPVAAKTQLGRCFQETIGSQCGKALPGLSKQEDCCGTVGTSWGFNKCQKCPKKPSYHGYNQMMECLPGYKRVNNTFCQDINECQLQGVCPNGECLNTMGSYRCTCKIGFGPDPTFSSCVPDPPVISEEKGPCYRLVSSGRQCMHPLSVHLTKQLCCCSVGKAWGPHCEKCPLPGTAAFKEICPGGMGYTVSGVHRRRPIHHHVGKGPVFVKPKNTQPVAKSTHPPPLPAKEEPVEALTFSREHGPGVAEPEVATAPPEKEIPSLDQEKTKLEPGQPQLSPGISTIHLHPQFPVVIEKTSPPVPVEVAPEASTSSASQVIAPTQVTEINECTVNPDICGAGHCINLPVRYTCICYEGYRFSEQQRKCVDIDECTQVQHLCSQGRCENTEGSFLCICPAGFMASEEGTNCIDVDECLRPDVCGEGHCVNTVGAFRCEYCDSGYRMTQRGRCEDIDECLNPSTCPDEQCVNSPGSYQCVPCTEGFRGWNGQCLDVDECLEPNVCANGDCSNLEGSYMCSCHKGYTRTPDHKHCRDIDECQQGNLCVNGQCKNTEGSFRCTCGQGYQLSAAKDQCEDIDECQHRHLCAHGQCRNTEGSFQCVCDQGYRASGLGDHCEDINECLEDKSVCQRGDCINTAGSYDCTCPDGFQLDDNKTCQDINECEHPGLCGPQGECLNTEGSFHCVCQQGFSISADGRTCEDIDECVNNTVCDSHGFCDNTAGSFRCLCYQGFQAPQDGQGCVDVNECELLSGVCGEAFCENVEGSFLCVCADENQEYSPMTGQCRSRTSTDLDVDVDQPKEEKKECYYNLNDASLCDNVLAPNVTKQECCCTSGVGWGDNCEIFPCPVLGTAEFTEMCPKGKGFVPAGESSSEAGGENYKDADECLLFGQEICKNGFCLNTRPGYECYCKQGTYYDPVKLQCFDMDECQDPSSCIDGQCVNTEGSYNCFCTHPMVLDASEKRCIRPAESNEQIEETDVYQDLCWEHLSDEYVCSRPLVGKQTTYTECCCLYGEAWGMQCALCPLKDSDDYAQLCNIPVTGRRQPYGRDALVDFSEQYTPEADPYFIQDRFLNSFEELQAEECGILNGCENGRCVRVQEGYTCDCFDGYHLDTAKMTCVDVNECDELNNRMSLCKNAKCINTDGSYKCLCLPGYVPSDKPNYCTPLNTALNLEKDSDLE
- T1 sequence (P01137 30-390 limits assumed, chain 2 of 2): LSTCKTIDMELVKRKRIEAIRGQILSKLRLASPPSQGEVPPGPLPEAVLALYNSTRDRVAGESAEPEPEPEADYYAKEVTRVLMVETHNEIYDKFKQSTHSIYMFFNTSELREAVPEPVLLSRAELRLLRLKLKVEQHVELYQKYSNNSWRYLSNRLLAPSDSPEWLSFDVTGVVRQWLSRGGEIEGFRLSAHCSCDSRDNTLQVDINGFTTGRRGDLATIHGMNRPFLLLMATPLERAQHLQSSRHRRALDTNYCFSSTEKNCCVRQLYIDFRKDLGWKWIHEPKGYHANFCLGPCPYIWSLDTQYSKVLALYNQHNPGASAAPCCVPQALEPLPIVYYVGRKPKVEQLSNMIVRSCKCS
- method-notes: SPR Biacore 8K, Fab over captured antigen
- Procedure: A Biacore 8K system was employed to determine the monovalent binding affinity and the kinetic parameters for antigen binding of test antibodies. Association and dissociation kinetics of Fab fragments SR-AB42-HuFab, SR-AB63-HuFab and SR-AB43-HuFab to antigen complexes were measured, and resulting ka, kd and KD are provided below. Briefly, the binding kinetics were evaluated by surface plasmon resonance using Biacore 8K (GE Healthcare). […]
Output criterion met for records whose Kd is lower than 60 pM, criterion not met for records at or above 60 pM.

These recorded examples may help you get a feel for the data.
SR-AB60-HuFab (Fab, V domains shown, Human Fab; also called SR-AB60 Fab) VH: QVQLVESGGGVVQPGRSLRLSCAASGFTFRSYVMHWVRQAPGKGLEWVAVISHEGSGKYYADSVKGRFTISRDNSKNTLYLQMNSLRAEDTAVYYCALPRIAARRGGFGTWGQGTLVTVSS VL: NFMLTQPHSVSESPGKTVTISCTRSSGNIDYNYVQWYQQRPGSSPTTVIYEDNVRPSGVPDRFSGSIDSSSNSASLTISGLKTEDEADYYCQSYDYDTQGVVFGGGTKLTVL : criterion met
SR-AB50-HuFab (Fab, V domains shown, Human Fab; also called SR-AB50 Fab) VH: QVQLVESGGGVVQPGRSLRLSCAASGFTFRSYVMHWVRQAPGKGLEWVAVISHEGSGKYYADSVKGRFTISRDNSKNTLYLQMNSLRAEDTAVYYCARPRIAARRGGFGTWGQGTLVTVSS VL: NFMLTQPHSVSESPGKTVTISCTRSSGNIDYNYVQWYQQRPGSSPTTVIYEDNVRPSGVPDRFSGSIDSSSNSASLTISGLKTEDEADYYCQSYDSDNQRVVFGGGTKLTVL : criterion met
SR-AB61-HuFab (Fab, V domains shown, Human Fab; also called SR-AB61 Fab) VH: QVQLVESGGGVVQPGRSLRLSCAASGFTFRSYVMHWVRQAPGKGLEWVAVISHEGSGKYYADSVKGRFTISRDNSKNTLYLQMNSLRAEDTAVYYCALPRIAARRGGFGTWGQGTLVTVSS VL: NFMLTQPHSVSESPGKTVTISCTRSSGNIDYNYVQWYQQRPGSSPTTVIYEDNVRPSGVPDRFSGSIDSSSNSASLTISGLKTEDEADYYCQGYDWDTQGVVFGGGTKLTVL : criterion not met
SR-AB59-HuFab (Fab, V domains shown, Human Fab; also called SR-AB59 Fab) VH: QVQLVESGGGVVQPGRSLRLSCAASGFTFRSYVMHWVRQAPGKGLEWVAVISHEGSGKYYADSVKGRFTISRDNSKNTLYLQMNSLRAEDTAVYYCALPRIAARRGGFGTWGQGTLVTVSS VL: NFMLTQPHSVSESPGKTVTISCTRSSGNIDYNYVQWYQQRPGSSPTTVIYEDNVRPSGVPDRFSGSIDSSSNSASLTISGLKTEDEADYYCQSYDYDNQAVVFGGGTKLTVL : criterion met
SR-AB46-HuFab (Fab, V domains shown, Human Fab; also called SR-AB46 Fab) VH: QVQLVESGGGVVQPGRSLRLSCAASGFTFRSYVMHWVRQAPGKGLEWVAVISHEGSGKYYADSVKGRFTISRDNSKNTLYLQMNSLRAEDTAVYYCARPRIAARRGGFGSWGQGTLVTVSS VL: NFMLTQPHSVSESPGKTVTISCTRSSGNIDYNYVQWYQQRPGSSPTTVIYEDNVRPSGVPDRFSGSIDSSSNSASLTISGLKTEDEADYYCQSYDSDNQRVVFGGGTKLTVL : criterion met

Find out if reported Kd for SR-AB58-HuFab (Fab, V domains shown, Human Fab; also called SR-AB58 Fab) VH: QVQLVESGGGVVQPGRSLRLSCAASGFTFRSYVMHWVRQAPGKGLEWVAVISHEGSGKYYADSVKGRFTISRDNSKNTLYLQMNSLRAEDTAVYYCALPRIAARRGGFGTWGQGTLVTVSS VL: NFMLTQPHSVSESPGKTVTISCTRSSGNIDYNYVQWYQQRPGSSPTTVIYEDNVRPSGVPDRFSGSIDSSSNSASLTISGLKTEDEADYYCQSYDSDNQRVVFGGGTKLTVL is less than 60 pM
criterion met

# check: Kd < 60 pM for SR-AB53-HuFab (Fab, V domains shown, Human Fab; also called SR-AB53 Fab) VH: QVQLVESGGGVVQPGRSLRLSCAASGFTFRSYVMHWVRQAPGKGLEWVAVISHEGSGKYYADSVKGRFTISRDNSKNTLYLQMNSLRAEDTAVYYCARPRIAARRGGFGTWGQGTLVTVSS VL: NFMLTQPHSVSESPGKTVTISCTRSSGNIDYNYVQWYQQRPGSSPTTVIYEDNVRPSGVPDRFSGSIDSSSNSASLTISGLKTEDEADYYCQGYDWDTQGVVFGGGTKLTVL
criterion not met

Consider SR-AB43-HuFab (Fab, V domains shown, Human Fab; also called SR-AB43 Fab) VH: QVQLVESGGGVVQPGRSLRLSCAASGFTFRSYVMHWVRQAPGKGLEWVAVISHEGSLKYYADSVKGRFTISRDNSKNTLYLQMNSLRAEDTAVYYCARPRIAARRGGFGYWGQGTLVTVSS VL: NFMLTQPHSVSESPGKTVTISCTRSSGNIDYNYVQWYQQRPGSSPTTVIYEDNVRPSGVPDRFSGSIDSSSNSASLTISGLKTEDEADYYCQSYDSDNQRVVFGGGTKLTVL . Does its Kd lie strictly below 60 pM?
criterion not met

I'd appreciate it if you could check whether SR-AB56-HuFab (Fab, V domains shown, Human Fab; also called SR-Ab56 Fab) VH: QVQLVESGGGVVQPGRSLRLSCAASGFTFRSYVMHWVRQAPGKGLEWVAVISHEGSGKYYADSVKGRFTISRDNSKNTLYLQMNSLRAEDTAVYYCALPRIAARRGGFGSWGQGTLVTVSS VL: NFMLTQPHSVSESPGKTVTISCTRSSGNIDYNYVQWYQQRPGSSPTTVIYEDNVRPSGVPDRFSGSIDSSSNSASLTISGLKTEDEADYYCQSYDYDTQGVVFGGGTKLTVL has Kd smaller than 60 pM.
criterion met
